# Assay System: P2X7 receptor (Homo sapiens, UniProt Q99572)
# Sequence (Q99572 whole entry): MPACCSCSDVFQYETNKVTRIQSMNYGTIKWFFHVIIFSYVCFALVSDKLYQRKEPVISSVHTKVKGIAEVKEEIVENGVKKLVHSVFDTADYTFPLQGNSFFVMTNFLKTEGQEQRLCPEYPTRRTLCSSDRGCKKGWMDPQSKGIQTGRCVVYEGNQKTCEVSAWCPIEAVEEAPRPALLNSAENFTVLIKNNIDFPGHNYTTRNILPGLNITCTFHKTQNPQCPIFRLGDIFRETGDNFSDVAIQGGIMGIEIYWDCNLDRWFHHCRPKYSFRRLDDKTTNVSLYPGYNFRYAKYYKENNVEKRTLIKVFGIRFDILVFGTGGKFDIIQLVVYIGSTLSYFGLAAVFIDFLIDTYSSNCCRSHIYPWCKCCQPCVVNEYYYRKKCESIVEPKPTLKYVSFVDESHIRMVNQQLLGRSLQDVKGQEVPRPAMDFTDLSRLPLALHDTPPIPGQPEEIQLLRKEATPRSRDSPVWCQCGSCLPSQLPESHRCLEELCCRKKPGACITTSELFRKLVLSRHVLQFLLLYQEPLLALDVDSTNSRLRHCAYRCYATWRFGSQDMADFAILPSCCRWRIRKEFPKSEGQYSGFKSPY
# Test Name: Screen Quest Fluo-8 No Wash Calcium Assay (Bz-ATP evoked Ca2+ influx, FLIPR)
# Format: cell-based
# Parameters: hP2X7 (IC50; nM); other: hP2X7; HEK-293 cells stably transfected with P2X7 receptor, Bz-ATP at EC80, Fluo-8 NW; potency
# Recorded Conditions: hP2X7; HEK-293 cells stably transfected with P2X7 receptor, Bz-ATP at EC80, Fluo-8 NW; potency ranges A-D
Below is a list of entries, each paired with its recorded IC50 value.

Below: 5 molecules and their reported IC50.
[
  {
    "Molecule": "O=c1onc(Cc2ccc(F)cc2)n1Cc1ccc(F)cc1",
    "IC50": "1000 to 10000 nM"
  },
  {
    "Molecule": "O=c1onc(Cc2c(F)cccc2Cl)n1Cn1ccc(C(F)(F)F)n1",
    "IC50": "1000 to 10000 nM"
  },
  {
    "Molecule": "O=c1onc(Cc2ccccc2Cl)n1CC1CCC(F)(F)CC1",
    "IC50": "< 200 nM"
  },
  {
    "Molecule": "COc1cccc(Cc2noc(=O)n2CC2CCC(F)(F)CC2)c1",
    "IC50": "200 to 1000 nM"
  },
  {
    "Molecule": "O=c1onc(Cc2ccncc2)n1Cc1ccc(F)cc1",
    "IC50": "> 10000 nM"
  }
]

The recorded IC50 with P2X7 receptor (Homo sapiens, UniProt Q99572) for `Cc1noc(C)c1Cc1noc(=O)n1CC1CCC(F)(F)CC1` was < 200 nM

The recorded IC50 with P2X7 receptor (Homo sapiens, UniProt Q99572) for `O=c1onc(Cc2cccc(Cl)c2Cl)n1Cc1c(F)cccc1Cl` was 1000 to 10000 nM

The recorded IC50 with P2X7 receptor (Homo sapiens, UniProt Q99572) for `O=c1onc(Cc2cccc(F)c2)n1Cc1ccc(F)cc1` was 1000 to 10000 nM

The recorded IC50 with P2X7 receptor (Homo sapiens, UniProt Q99572) for `CCCn1c(Cc2c(F)cccc2Cl)noc1=O` was > 10000 nM

The recorded IC50 with P2X7 receptor (Homo sapiens, UniProt Q99572) for O=c1onc(C(O)c2cccc(C(F)(F)F)c2Cl)n1Cc1ccccc1 (stereo not shown) was 1000 to 10000 nM
